Origin of values: patent US9062124B2

Here the recorded EC50 is given for each entry.
Biological target: GIP receptor (Homo sapiens, UniProt P48546)
Construct: expressed in transfected cells; host or cells: HEK293
Sequence (P48546 22-466): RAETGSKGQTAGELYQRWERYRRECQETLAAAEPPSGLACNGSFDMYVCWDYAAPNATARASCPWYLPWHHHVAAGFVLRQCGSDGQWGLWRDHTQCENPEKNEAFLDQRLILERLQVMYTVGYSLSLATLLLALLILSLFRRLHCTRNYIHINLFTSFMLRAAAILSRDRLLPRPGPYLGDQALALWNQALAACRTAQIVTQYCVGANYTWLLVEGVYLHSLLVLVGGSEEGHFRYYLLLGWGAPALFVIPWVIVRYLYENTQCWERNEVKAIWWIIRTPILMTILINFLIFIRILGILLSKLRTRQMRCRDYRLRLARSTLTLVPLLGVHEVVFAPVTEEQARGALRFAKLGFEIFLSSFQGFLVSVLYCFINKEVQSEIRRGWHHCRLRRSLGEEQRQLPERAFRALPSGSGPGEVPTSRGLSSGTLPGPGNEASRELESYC
Test: cAMP synthesis functional assay (firefly luciferase reporter in HEK293 cells), GIP receptor
Assay type: cell-based
Details: read-out: GIP Receptor EC50; Table 1
Bridges are numbered along the chain shown (N, C = ends). Where no end group is shown, it is not given here. [ ]: non-standard residue; d: D form. PEG 40 kDa = PEG (40 kDa) covalently attached to Cys; Nle = CCCC[C@H](N)C(=O)O; Aib = CC(C)(N)C(=O)O

Recorded results for 3 substances are shown here.
mt-179: glucagon analog peptide, C-terminal amide; called GIP/glucagon co-agonist and triagonist (Y[Aib]QGTFISDYSIYLDEQAAKEFVC(PEG 40 kDa)WLLAG-NH2; lactam 16-20) ... 0.473 nM
mt-203: glucagon analog peptide, C-terminal amide (Y[Aib]QGTFTSDYSIYLDEQAAKEFVNWL[Nle]AGGPSSGAPPPSC(PEG 40 kDa)-NH2; lactam 16-20) ... 12.2 nM
mt-205: glucagon analog peptide, C-terminal amide (Y[Aib]EGTFTSDYSIYLDEQAAKEFVNWLLAGRPSSGAPPPSC(PEG 40 kDa)-NH2; lactam 16-20) ... 1.66 nM

So for mt-202: glucagon analog peptide, C-terminal amide (Y[Aib]QGTFVSDYSIYLDEQAAKEFVNWLLAGGPSSGAPPPSC(PEG 40 kDa)-NH2; lactam 16-20) , the logged EC50 turned out to be 2.2 nM

----------
Here the recorded EC50 is given for each entry.
Target: GLP-1 receptor (Homo sapiens)
Construct: expressed in transfected cells; host or cells: HEK293
Assay: cAMP synthesis functional assay (firefly luciferase reporter in HEK293 cells), GLP-1 receptor
Type: cell-based
Conditions: read-out: GLP-1 Receptor EC50; Table 1
Bridges are numbered along the chain shown (N, C = ends). Where no end group is shown, it is not given here. [ ]: non-standard residue; d: D form. PEG 40 kDa = PEG (40 kDa) covalently attached to Cys; Nle = CCCC[C@H](N)C(=O)O; Aib = CC(C)(N)C(=O)O
Number in nM, nothing else.

mt-203: glucagon analog peptide, C-terminal amide (Y[Aib]QGTFTSDYSIYLDEQAAKEFVNWL[Nle]AGGPSSGAPPPSC(PEG 40 kDa)-NH2; lactam 16-20) ... 0.14
mt-202: glucagon analog peptide, C-terminal amide (Y[Aib]QGTFVSDYSIYLDEQAAKEFVNWLLAGGPSSGAPPPSC(PEG 40 kDa)-NH2; lactam 16-20) ... 15.7
mt-179: glucagon analog peptide, C-terminal amide; called GIP/glucagon co-agonist and triagonist (Y[Aib]QGTFISDYSIYLDEQAAKEFVC(PEG 40 kDa)WLLAG-NH2; lactam 16-20) ... 0.26

So for mt-205: glucagon analog peptide, C-terminal amide (Y[Aib]EGTFTSDYSIYLDEQAAKEFVNWLLAGRPSSGAPPPSC(PEG 40 kDa)-NH2; lactam 16-20) , the logged EC50 turned out to be 0.204

----------
Molecular target: GLP-1 receptor (Homo sapiens)
Construct: expressed in transfected cells; host or cells: HEK293
Test: cAMP synthesis functional assay (firefly luciferase reporter in HEK293 cells), GLP-1 receptor
Assay type: cell-based
Details: read-out: GLP-1 Receptor EC50; Table 2
Where no end group is shown, it is not given here. [ ]: non-standard residue; d: D form. PEG 40 kDa = PEG (40 kDa) covalently attached to Cys; Aib = CC(C)(N)C(=O)O
RESULT TYPE: pEC50
Conceptually, pEC50 converts a concentration in mol/L into minus its log10.

So for mt-249: linear peptide lacking a lactam bridge, AIB at position 16 and/or 20 (Y[Aib]QGTFTSDYSIYLD[Aib]QAAQEFVNWLLAGGPSSGAPPPSC(PEG 40 kDa)-NH2) , the logged pEC50 turned out to be 9.41

----------
Target: GLP-1 receptor (Homo sapiens, UniProt P43220)
Construct: expressed in transfected cells; host or cells: HEK293
Sequence (P43220 24-463, species assumed): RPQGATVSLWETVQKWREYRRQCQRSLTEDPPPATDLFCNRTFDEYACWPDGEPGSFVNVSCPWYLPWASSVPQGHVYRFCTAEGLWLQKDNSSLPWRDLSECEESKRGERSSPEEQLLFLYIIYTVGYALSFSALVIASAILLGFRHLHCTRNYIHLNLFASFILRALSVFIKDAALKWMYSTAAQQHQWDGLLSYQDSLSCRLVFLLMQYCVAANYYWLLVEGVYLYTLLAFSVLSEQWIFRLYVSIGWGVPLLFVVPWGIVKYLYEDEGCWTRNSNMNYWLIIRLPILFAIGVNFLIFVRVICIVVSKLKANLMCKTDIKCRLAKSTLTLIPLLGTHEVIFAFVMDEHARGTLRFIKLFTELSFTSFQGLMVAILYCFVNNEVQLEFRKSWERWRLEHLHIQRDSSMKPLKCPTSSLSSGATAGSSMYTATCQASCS
Test: cAMP synthesis functional assay (firefly luciferase reporter in HEK293 cells), GLP-1 receptor
Format: cell-based
Details: Table 1; relative to the native hormone of the indicated receptor
Bridges are numbered along the chain shown (N, C = ends). Where no end group is shown, it is not given here. [ ]: non-standard residue; d: D form. PEG 40 kDa = PEG (40 kDa) covalently attached to Cys; Aib = CC(C)(N)C(=O)O
Is GLP-1 Receptor relative activity at least 10%? Then Criterion met. If not, Criterion not met.

Use these answered entries as a reference point.
mt-208: glucagon analog peptide, C-terminal amide (Y[Aib]EGTFTSDYSIYLDEQAAKEFVNWLLAGKGKKNWLKHNITQC(PEG 40 kDa)-NH2; lactam 16-20) ... Criterion met
HSQGTFTSDYSKYLDKIHQEEFIAWLMNT-NH2 [mt-68] ... Criterion not met
Y[Aib]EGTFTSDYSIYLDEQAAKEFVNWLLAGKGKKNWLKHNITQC-NH2 (lactam 16-20) [mt-206] ... Criterion met

# input Given YAEGTFISDYSIAMDKIHQQDFVNWLLAQ-NH2 [mt-106] , state whether its GLP-1 Receptor relative activity is at least 10%.
# output Criterion not met

# input Given HSQGTFTSDYSKYLDEIHQKEFIAWLLAQ-NH2 [mt-66] , state whether its GLP-1 Receptor relative activity is at least 10%.
# output Criterion met

----------
Biological target: glucagon receptor (Homo sapiens, UniProt P47871)
Construct: expressed in transfected cells; host or cells: HEK293
Sequence (P47871 26-477): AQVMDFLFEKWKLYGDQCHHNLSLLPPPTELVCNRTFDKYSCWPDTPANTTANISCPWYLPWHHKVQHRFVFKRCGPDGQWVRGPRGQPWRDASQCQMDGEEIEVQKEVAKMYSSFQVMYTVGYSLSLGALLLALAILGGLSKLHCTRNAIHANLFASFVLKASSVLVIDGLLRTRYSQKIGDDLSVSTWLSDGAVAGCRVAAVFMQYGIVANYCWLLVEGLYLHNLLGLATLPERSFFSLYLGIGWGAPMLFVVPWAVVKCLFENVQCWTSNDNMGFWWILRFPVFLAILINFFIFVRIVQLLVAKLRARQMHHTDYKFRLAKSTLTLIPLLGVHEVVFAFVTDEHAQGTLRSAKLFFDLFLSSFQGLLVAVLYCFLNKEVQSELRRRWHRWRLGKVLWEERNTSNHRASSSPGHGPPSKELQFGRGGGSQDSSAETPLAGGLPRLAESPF
Assay: cAMP synthesis functional assay (firefly luciferase reporter in HEK293 cells), glucagon receptor
Assay type: cell-based
Settings: read-out: Glucagon Receptor EC50; Table 2; linear peptides with AIB at position 16 and/or 20
Where no end group is shown, it is not given here. [ ]: non-standard residue; d: D form. PEG 40 kDa = PEG (40 kDa) covalently attached to Cys; Aib = CC(C)(N)C(=O)O
RESULT TYPE: pEC50
Conceptually, pEC50 converts a concentration in mol/L into minus its log10.

Entry mt-249: linear peptide lacking a lactam bridge, AIB at position 16 and/or 20 (Y[Aib]QGTFTSDYSIYLD[Aib]QAAQEFVNWLLAGGPSSGAPPPSC(PEG 40 kDa)-NH2) under glucagon receptor (Homo sapiens, UniProt P47871) had pEC50 of 7.99

----------
Target: GIP receptor (Homo sapiens)
Construct: expressed in transfected cells; host or cells: HEK293
Sequence (P48546 22-466): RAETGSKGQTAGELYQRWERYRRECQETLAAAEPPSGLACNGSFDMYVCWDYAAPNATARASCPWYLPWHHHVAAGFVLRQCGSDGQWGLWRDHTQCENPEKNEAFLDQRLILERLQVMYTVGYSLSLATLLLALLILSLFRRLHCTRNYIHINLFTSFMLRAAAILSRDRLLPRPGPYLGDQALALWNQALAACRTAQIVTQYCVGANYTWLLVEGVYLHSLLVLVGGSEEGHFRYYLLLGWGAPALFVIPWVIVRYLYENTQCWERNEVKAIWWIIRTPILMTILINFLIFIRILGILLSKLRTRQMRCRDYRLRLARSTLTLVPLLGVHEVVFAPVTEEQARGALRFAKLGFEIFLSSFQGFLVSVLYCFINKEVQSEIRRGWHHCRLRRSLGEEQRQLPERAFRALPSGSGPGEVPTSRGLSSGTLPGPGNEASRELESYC
Experiment: cAMP synthesis functional assay (firefly luciferase reporter in HEK293 cells), GIP receptor
Type: cell-based
Details: Table 1; relative to the native hormone of the indicated receptor
Bridges are numbered along the chain shown (N, C = ends). Where no end group is shown, it is not given here. [ ]: non-standard residue; d: D form. PEG 40 kDa = PEG (40 kDa) covalently attached to Cys; Nle = CCCC[C@H](N)C(=O)O; Aib = CC(C)(N)C(=O)O
Please respond with Criterion met when measured GIP Receptor relative activity is strictly beneath 4%, and with Criterion not met in all other cases.

# input Decide: GIP Receptor relative activity of mt-203: glucagon analog peptide, C-terminal amide (Y[Aib]QGTFTSDYSIYLDEQAAKEFVNWL[Nle]AGGPSSGAPPPSC(PEG 40 kDa)-NH2; lactam 16-20) strictly below 4%?
# output Criterion met
